All values here come from the supplement of paper PMC10307832.

system: NCI-H1650; experiment: relative viability (nuclei count vs DMSO), 5 days (fraction); higher = more cells survive; conditions: first compound 0.08 µM
Consider the cut-off 0.8. If the recorded relative viability is strictly smaller, the label is yes (1); if not, the label is no (0).

Example cases with answers are listed next.
1) CCCCCCCCCCCC1=C(O)C(=O)C=C(O)C1=O [Embelin] + N=C(N)NC(=N)NCCc1ccccc1 [Phenformin] (partner 250 µM) ... yes (1)
2) CCCCCCCCCCCC1=C(O)C(=O)C=C(O)C1=O [Embelin] + COc1cc2c(Oc3ccc(NC(=O)C4(C(=O)Nc5ccc(F)cc5)CC4)cc3F)ccnc2cc1OCCCN1CCOCC1 [Foretinib] (partner 0.25 µM) ... no (0)

Ask: Please indicate whether the reported relative viability of CCCCCCCCCCCC1=C(O)C(=O)C=C(O)C1=O [Embelin] + CS(=O)(=O)CCNCc1ccc(-c2ccc3ncnc(Nc4ccc(OCc5cccc(F)c5)c(Cl)c4)c3c2)o1 [Lapatinib] (partner 2 µM) is strictly below 0.8.
Result: yes (1)

Ask: Please indicate whether the reported relative viability of CCCCCCCCCCCC1=C(O)C(=O)C=C(O)C1=O [Embelin] + O=C(CCCCCCC(=O)Nc1ccccc1)NO [Vorinostat] (partner 1 µM) is strictly below 0.8.
Result: yes (1)

Ask: Please indicate whether the reported relative viability of CCCCCCCCCCCC1=C(O)C(=O)C=C(O)C1=O [Embelin] + O=C(c1cc(Cc2n[nH]c(=O)c3ccccc23)ccc1F)N1CCN(C(=O)C2CC2)CC1 [Olaparib] (partner 8 µM) is strictly below 0.8.
Result: yes (1)
